target: MAO-B (Homo sapiens); construct: purchased Sigma Aldrich; assay: MAO-B enzyme inhibition assay (benzylamine substrate); format: biochemical; conditions: mean ± SD
Sequence (P27338 whole entry): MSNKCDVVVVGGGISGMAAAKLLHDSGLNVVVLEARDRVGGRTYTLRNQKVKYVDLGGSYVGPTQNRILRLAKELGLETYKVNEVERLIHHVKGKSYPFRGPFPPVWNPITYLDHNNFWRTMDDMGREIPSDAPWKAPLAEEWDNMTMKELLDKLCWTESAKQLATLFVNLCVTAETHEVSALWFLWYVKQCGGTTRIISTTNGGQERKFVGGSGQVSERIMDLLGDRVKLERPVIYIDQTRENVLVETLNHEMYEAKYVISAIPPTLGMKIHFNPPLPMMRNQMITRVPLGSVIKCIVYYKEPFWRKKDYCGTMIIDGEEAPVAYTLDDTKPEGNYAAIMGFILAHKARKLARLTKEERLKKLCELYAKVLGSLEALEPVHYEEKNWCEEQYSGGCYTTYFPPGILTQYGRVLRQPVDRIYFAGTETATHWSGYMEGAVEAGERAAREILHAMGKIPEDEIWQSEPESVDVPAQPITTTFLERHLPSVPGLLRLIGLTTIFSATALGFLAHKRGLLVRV
Give log10 IC50 for every item shown.
Log10 applied to IC50; unit prior to transform: µM.

1) CN1CCN(c2ccc(C(=O)/C=C/c3ccc(Cl)c(C(F)(F)F)c3)cc2)CC1
0.15
2) COc1ccc(/C=C/C(=O)c2ccc(N3CCN(C)CC3)cc2)c(C(F)(F)F)c1
0.34
3) CN1CCN(c2ccc(C(=O)/C=C/c3ccc(F)cc3)cc2)CC1
0.47
4) CC(C)c1ccc(/C=C/C(=O)c2ccc(N3CCN(C)CC3)cc2)cc1
0.92
5) CN1CCN(c2ccc(C(=O)/C=C/c3cc(C(F)(F)F)ccc3Cl)cc2)CC1
0.51

// for each compound in input: emit log10 IC50
1. CN1CCN(c2ccc(C(=O)/C=C/c3cc(F)cc(C(F)(F)F)c3)cc2)CC1
2. CN1CCN(c2ccc(C(=O)/C=C/c3cc(C(F)(F)F)cc(C(F)(F)F)c3)cc2)CC1
3. CN1CCN(c2ccc(C(=O)/C=C/c3ccc(N(C)C)cc3)cc2)CC1
4. COc1cc(/C=C/C(=O)c2ccc(N3CCN(C)CC3)cc2)ccc1F
5. CN1CCN(c2ccc(C(=O)/C=C/c3cccc(C(F)(F)F)c3)cc2)CC1
6. CN1CCN(c2ccc(C(=O)/C=C/c3ccc(C(F)(F)F)cc3)cc2)CC1
7. CN1CCN(c2ccc(C(=O)/C=C/c3ccc(F)cc3F)cc2)CC1

0.37
1.20
0.52
0.83
0.41
0.49
0.48

Parameters: items (list). Returns: log10 IC50 for each item.
1. CSc1ccc(/C=C/C(=O)c2ccc(N3CCN(C)CC3)cc2)cc1
2. CN1CCN(c2ccc(C(=O)/C=C/c3ccc(OC(F)F)cc3)cc2)CC1

1. 0.83
2. 0.79

Record request: log10 IC50 value, item `CN1CCN(c2ccc(C(=O)/C=C/c3ccc(C#N)cc3)cc2)CC1`
0.34

These data points were gathered from paper PMC9860728.
